These data points were gathered from patent US11596611B2.

Here the recorded CC50 at 3 days is given for each entry.
- assay text: Compound toxicity by ATPLite (total ATP levels)
- Format: cell-based
- reported conditions: human; three days after compound addition; 50% reduction of total ATP; numeric bounds

# compound, CC50 at 3 days
measured = [
    ("C[C@@H](O)[C@@H](O)[C@@]1(O)C2CC[C@H]1C[C@H](S(=O)(=O)c1cc(C(=O)Nc3cc(F)c(F)c(F)c3)ccc1Cl)C2 (single isomer, unassigned)", "> 12.5 µM"),
]

# input compound: CC=CCNC(=O)C[C@]1(O)C2CCC1C[C@@H](S(=O)(=O)c1cc(C(=O)Nc3cc(F)c(F)c(F)c3)ccc1Cl)C2 ; wanted: its CC50 at 3 days
> 6.25 µM

Now give it for C[C@H](O)CNC(=O)C[C@]1(O)C2CCC1C[C@@H](S(=O)(=O)c1cc(C(=O)Nc3cc(F)c(F)c(F)c3)ccc1Cl)C2 too.
> 6.25 µM

Next: C[C@H](O)[C@@H](O)[C@]1(O)C2CCC1C[C@@H](S(=O)(=O)c1cc(C(=O)Nc3ccc(F)c(F)c3)ccc1Cl)C2 (mixture of isomers)
> 6.25 µM

Okay, and C[C@H](O)[C@@H](O)[C@]1(O)C2CCC1C[C@@H](S(=O)(=O)c1cc(C(=O)Nc3cc(F)c(F)c(F)c3)ccc1Cl)C2 (racemic) ?
> 3 µM

Subsequent entry: C[C@H](O)COC[C@]1(O)C2CCC1C[C@@H](S(=O)(=O)c1cc(C(=O)Nc3ccc(F)c(F)c3)ccc1Cl)C2
> 6.25 µM

// same read-out, input: O=C(Nc1cc(F)c(F)c(F)c1)c1ccc(Cl)c(S(=O)(=O)[C@H]2CC3CCC(C2)[C@@]3(O)C(O)CO)c1 (mixture of isomers)
> 12.5 µM

Please give the result for C=CCS(=O)(=O)NC[C@]1(O)C2CCC1C[C@@H](S(=O)(=O)c1cc(C(=O)Nc3cc(F)c(F)c(F)c3)ccc1Cl)C2 too.
> 6.25 µM
